compounds and their reported IC50
System: 5637
Measurement notes: MTT assay (IC50)
Assay type: cell-based, human
Protocol conditions: Homo sapiens; 5637 (parental, Example 11); MTT, 72 hours
Property name: IC50 (nM)

[
  {
    "Compound": "CN(Cc1cnc2nc(N)nc(N)c2n1)c1ccc(C(=O)N[C@@H](CCC(=O)O)C(=O)O)cc1 [methotrexate]",
    "Target or system": 5637,
    "Measurement": 2010
  },
  {
    "Compound": "COc1cccc2c1C(=O)c1c(O)c3c(c(O)c1C2=O)C[C@@](O)(C(=O)CO)C[C@@H]3O[C@H]1C[C@H](N)[C@H](O)[C@H](C)O1 [doxorubicin]",
    "Target or system": 5637,
    "Measurement": 290
  },
  {
    "Compound": "Nc1ccn([C@@H]2O[C@H](CO)[C@@H](O)C2(F)F)c(=O)n1 [gemcitabine]",
    "Target or system": 5637,
    "Measurement": 120
  }
]
